// reported IC90 for each item listed
- Test system: Plasmodium berghei
- ASSAY_COMMENT: Luciferase/luciferin-expressing antifolate-resistant parasites were used to infect a culture of HepG2 cells that were pre-incubated with compounds. Infected hepatocytes emit light due to the luciferase reaction. Assay results are presented as the percent inhibition of light emission compared to control. […]
- Type: functional
- CONDITIONS_USED: sporozoite, read-out: LUCIFERASE INFECTION ASSAY - IC90
Provide only the numeric value, understood in µM.

Past entries and their recorded results:
COc1ccc(CCC(=O)N(c2nc(-c3ccc(C)cc3)cs2)c2cc(C)ccc2C)cc1OC    4.21
CCOc1cccc2c(C)nc(Nc3nc(=O)c4ccccc4[nH]3)nc12    7.27
Cc1cc(C(=O)COC(=O)c2ccc3[nH]c4c(c3c2)CCCC4)c(C)n1Cc1ccccc1Cl    4.61

For the next question, use this molecule.
The recorded IC90 with Plasmodium berghei for Cc1ccnc(NC(=O)c2ccc(C3SCCCS3)cc2)c1 was 1.57
